Hey, just so you know, these numbers are from PubChem BioAssay (NCI).

- Tested on: SN12C renal
- PROCEDURE SUMMARY: NCI-60 one-dose screen, 48 h (100 = growth as untreated, 0 = no growth, -100 = all killed)
- EXPERIMENTAL SETUP: 10 µM unless noted
This is part of a sample that, as a whole, favours compounds with a hit. Of some 83,000 tested, about 20% had one in any assay.
PROPERTY NAME: growth (%)
Kindly provide the numeric value in % only, without the unit symbol.

Please look at this compound and report its growth: COc1cc(/C=C/C(=O)N2CCN(C(=O)c3cc(OC)c(OC)c(OC)c3)CC2)ccc1OCCCOc1cc2c(cc1OC)C(=O)N1CCC[C@H]1C=N2
13.9

Please look at this compound and report its growth: CCCCO[C@@H]1C=C2[C@H]3CC(C)(C)C(=O)C[C@]3(C(=O)O[C@@H]3O[C@H](CO[C@@H]4O[C@H](CO)[C@@H](OC5OC(C)C(O)C(O)C5O)[C@H](O)[C@H]4O)[C@@H](O)[C@H](O)[C@H]3O)CC[C@@]2(C)[C@]2(C)CC[C@H]3C(C)(C)C(=O)CC[C@]3(C)[C@@H]12 (stereo not given in full)
81.2

Please look at this compound and report its growth: N#Cc1c(-c2ccccc2)cc(-c2ccccc2)n(CCCCC(=O)NO)c1=O
23.2

Please look at this compound and report its growth: COc1ccc(C/C(C)=C(\c2ccc(O)cc2)c2ccc(OCCN3CCCCC3)cc2)cc1
89.9

Please look at this compound and report its growth: Cc1ccc(NC(=O)c2sc3nc(C)c(C(O)c4ccccc4)cc3c2N)cc1 (stereo not given)
18.9

---

- Test system: SW-620 colon
- PROCEDURE SUMMARY: NCI-60 one-dose screen, 48 h (100 = growth as untreated, 0 = no growth, -100 = all killed)
- EXPERIMENTAL SETUP: 10 µM unless noted
Compounds without any hit were thinned out: in the full panel of roughly 83,000, 20% have a hit.
PROPERTY NAME: growth (%)
Kindly provide the numeric value in % only, without the unit symbol.

Please look at this molecule and report its growth: O=C(Nc1ccc(Nc2ccncc2)cc1)c1ccc(Nc2ccnc3ccc([N+](=O)[O-])cc23)cc1
105

Please look at this molecule and report its growth: Cc1cc(=O)n(C(=S)Nc2ccc(Cl)cc2)c2cc(O)ccc12
110

Please look at this molecule and report its growth: C=C1C(=O)O[C@H]2[C@H]1CC/C(COC(=O)NCc1ccc(Cn3c(=O)sn(-c4ccccc4)c3=O)cc1)=C\CC[C@@]1(C)O[C@@H]21
-13

---

- System: CAKI-1 renal
- PROCEDURE SUMMARY: NCI-60 one-dose screen, 48 h (100 = growth as untreated, 0 = no growth, -100 = all killed)
- EXPERIMENTAL SETUP: 10 µM unless noted
Compounds without any hit were thinned out: in the full panel of roughly 83,000, 20% have a hit.
Decide by growth: equal to or exceeding 80% means yes (1), less means no (0).

Entry CCN1CCN(CCNc2nccc(-c3c(-c4ccc(F)c(O)c4)nc4occn34)n2)S1(=O)=O : is its growth no less than 80%?
no (0)

Entry Cc1ccc(C)c2c1sc1nc(N3CCOCC3)c(C#N)c(=O)n12 : is its growth no less than 80%?
yes (1)

Entry COc1ccc(C2[C@@H](c3ccccc3)C(=O)N2c2cc(OC)c(OC)c(OC)c2)cc1F (stereo not given in full) : is its growth no less than 80%?
no (0)

Entry OC1(c2ccccc2)c2ccccc2N(c2ccccc2)c2ccc(Cl)cc21 (stereo not given) : is its growth no less than 80%?
no (0)

Entry O=C1CCCCN1c1ccc(C2=NCCCN2)cc1 : is its growth no less than 80%?
yes (1)

Entry Nc1cccc(-c2ccc(COc3ccc(CC4SC(=O)NC4=O)cc3)cc2)c1 (stereo not given) : is its growth no less than 80%?
no (0)

Entry CN(C)Cc1cc(C(C)(C)C)cc(Br)c1O : is its growth no less than 80%?
yes (1)

Entry CC1=C2CC/C(C)=C/CC[C@]3(C)O[C@H]3CC/C(C)=C/[C@H]2OC1 : is its growth no less than 80%?
yes (1)

Entry [N-]=[N+]=NCC1OC(n2cnc3c(NC(=O)Nc4ccccc4)ncnc32)C2OC(=O)CC12 (stereo not given) : is its growth no less than 80%?
yes (1)

Entry C=C(C)[C@@H]1CC[C@]2(C)[C@H](C=CC3=C4C[C@@](C)(CO)CC[C@]4(C)CC[C@]32C)[C@@]1(C)CCCN : is its growth no less than 80%?
no (0)

Entry COCCOC(C)C(/C=N/NC(N)=S)=N/NC(N)=S (stereo not given) : is its growth no less than 80%?
yes (1)

Entry CC(C)n1c2ccc(Br)cc2c2c3c(c4c5ccccc5ccc4c21)C(=O)NC3=O : is its growth no less than 80%?
yes (1)

Entry C[C@@H]1NC(=O)[C@H](Cc2ccccc2)N(Cc2cccnc2)C1=O : is its growth no less than 80%?
yes (1)

Entry COCCn1cc(-c2nc(-c3cc4cccnc4n3C)cs2)c2ccccc21 : is its growth no less than 80%?
no (0)

Entry CCN(CC)CCOc1ccc(C(=O)/C=C\c2ccc(Cl)cc2Cl)cc1 : is its growth no less than 80%?
no (0)

Entry O=c1oc2c(cnc3ccccc32)cc1-c1cccc(Cl)c1 : is its growth no less than 80%?
yes (1)

Entry Nc1nc2ccccc2c2c(=O)c3cc(Cl)ccc3sc12 : is its growth no less than 80%?
yes (1)

Entry Cn1c(C#N)ccc1-c1ccc(F)c(NC(=O)c2ccc(F)cc2)c1 : is its growth no less than 80%?
no (0)

Entry COCCn1cc(-c2csc(-c3c[nH]c4ccc(F)cc34)n2)c2cccnc21 : is its growth no less than 80%?
no (0)

Entry Cc1oc(-c2ccc(Cl)cc2)nc1C1=NN(C(=O)c2ccncc2)C(c2ccccc2)C1 (stereo not given) : is its growth no less than 80%?
no (0)

Entry Cc1nn(C)c2ncnc(N/N=C/c3cccc(O)c3O)c12 : is its growth no less than 80%?
no (0)

Entry Cc1ccccc1N1CCN(C(=S)c2ccccc2)CC1 : is its growth no less than 80%?
no (0)

Entry CN(C)c1ccc(C(=S)c2ccc(N(C)C)cc2)cc1 : is its growth no less than 80%?
yes (1)

Entry COc1ccc(NC(=O)c2ccc(Nc3ncnc4c3cnn4-c3cccc(F)c3)cc2)cc1 : is its growth no less than 80%?
yes (1)

Entry OC1CSSC1Cn1cnc2c(Nc3ccc(OCc4cccc(F)c4)c(Cl)c3)ncnc21 (stereo not given) : is its growth no less than 80%?
no (0)

---

- Tested on: HCC-2998 colon
- PROCEDURE SUMMARY: NCI-60 one-dose screen, 48 h (100 = growth as untreated, 0 = no growth, -100 = all killed)
- EXPERIMENTAL SETUP: 10 µM unless noted
The panel holds about 83,000 compounds, 20% with a hit somewhere; the sample as a whole holds those more often.
PROPERTY NAME: growth (%)
Kindly provide the numeric value in % only, without the unit symbol.

Name the value of growth reported for COc1cc(/C=C/c2cc(/C=C/c3ccc(O)c(OC)c3)n(C(=O)Nc3ccc(Cl)cc3)n2)ccc1O when tested on HCC-2998 colon.
4.55

Name the value of growth reported for O=S(=O)(NCCNc1nccc(-c2c(-c3ccc(F)c(O)c3)nc3sccn23)n1)c1ccc(Cl)cc1 when tested on HCC-2998 colon.
59.6

Name the value of growth reported for CC(=O)N1N=C(c2ccc(Nc3nc(Nc4ccc(F)cc4)nc(Nc4ccc(F)cc4)n3)cc2)CC1c1ccc(N(C)C)cc1 (stereo not drawn) when tested on HCC-2998 colon.
67.5

Name the value of growth reported for O=c1c2ccccc2n(C[C@H]2CO2)c2ccccc12 when tested on HCC-2998 colon.
-70

Name the value of growth reported for CC(C)(C)c1ccc(S(=O)(=O)Oc2ccc(-c3sc4cc(OS(=O)(=O)c5ccc(C(C)(C)C)cc5)ccc4c3C(=O)c3ccc(OCCN4CCCCC4)cc3)cc2)cc1 when tested on HCC-2998 colon.
98.1

Name the value of growth reported for COc1ccc(C2CC(c3ccccc3)=NN2C(=O)c2cc(OC)c(OC)c(OC)c2)cc1O (stereo not drawn) when tested on HCC-2998 colon.
-1.27

Name the value of growth reported for O=C1CCC(C(=O)N/N=C/c2cc(F)ccc2F)N1 (stereo not drawn) when tested on HCC-2998 colon.
107

Name the value of growth reported for Cc1c(C(C)(C)O)cn2ncnc(Oc3ccc(NC(=O)Nc4ccc(Cl)c(C(F)(F)F)c4)c(F)c3)c12 when tested on HCC-2998 colon.
125

Name the value of growth reported for CC(C)n1c2ccc(Br)cc2c2c3c(c4c5ccccc5ccc4c21)C(=O)NC3=O when tested on HCC-2998 colon.
103

Name the value of growth reported for CCCCNC(=O)c1ccc2c(c1)nc(-c1ccccc1)n2C1CCCCC1 when tested on HCC-2998 colon.
102

Name the value of growth reported for CCn1cc(C(=O)O)c(=O)c2cc(F)c(N3CCN(CC(=O)Nc4ccccc4)C(C)C3)c(F)c21 (stereo not drawn) when tested on HCC-2998 colon.
99.9

Name the value of growth reported for O=C(c1ccc(Br)cc1)C(Br)C(c1ccc(Cl)cc1)C(c1ccccc1)[N+](=O)[O-] (stereo not drawn) when tested on HCC-2998 colon.
125

Name the value of growth reported for Cc1cccc(NC(=O)Cn2cc(CN3CCN(c4ccnc5cc(Cl)ccc45)CC3)nn2)c1 when tested on HCC-2998 colon.
102

Name the value of growth reported for COc1ccc2cc(-c3nc4ccc(C)cn4c3NCc3ccco3)c(=O)[nH]c2c1 when tested on HCC-2998 colon.
95.6

Name the value of growth reported for CC[C@H](Nc1nc(N)nc(C)c1C#N)c1nc2cccc(CN(C)c3ncc(C(=O)NO)cn3)c2c(=O)n1-c1ccccc1 when tested on HCC-2998 colon.
-7.29

Name the value of growth reported for CCN(CC)CCCC(Cc1ccccc1)Nc1c2ccc(Cl)cc2nc2ccc(OC)cc12 (stereo not drawn) when tested on HCC-2998 colon.
-72.1

Name the value of growth reported for O=C(Oc1ccc2c(c1)sc1nc(-c3ccccc3)[nH]c(=O)c12)C(F)(F)F when tested on HCC-2998 colon.
31.2

Name the value of growth reported for Cc1sc2nc(NCCN)[nH]c(=O)c2c1C when tested on HCC-2998 colon.
101

Name the value of growth reported for CCOC(=O)CC[C@H](NC(=O)c1ccc(N(C)Cc2cnc3nc(N)nc(N)c3n2)c2ccccc12)C(=O)OCC when tested on HCC-2998 colon.
35.6

Name the value of growth reported for CCSc1ccnc(N)n1 when tested on HCC-2998 colon.
116

Name the value of growth reported for Cc1cc(C)c2c(c1)N(C)c1ncnc(-n3c(C)nc4cc(C)ccc43)c1CC2C (stereo not drawn) when tested on HCC-2998 colon.
76.1

Name the value of growth reported for COc1ccc(C2C3=C(COC3=O)N(CCO)c3cc4c(cc32)OCO4)cc1OC (stereo not drawn) when tested on HCC-2998 colon.
74.5

Name the value of growth reported for O=c1cc(C(F)(F)F)c2cc(-c3cc4ccccc4c(=O)o3)c(O)cc2o1 when tested on HCC-2998 colon.
92.8

Name the value of growth reported for CN(C)c1ccc(C(=S)c2ccc(N(C)C)cc2)cc1 when tested on HCC-2998 colon.
70.6

Name the value of growth reported for COc1ccc(-c2nc(SCC(=O)Nc3nc4ccc(C)cc4s3)[nH]c(=O)c2C#N)cc1OC when tested on HCC-2998 colon.
105

Name the value of growth reported for CCN(CC)C(=O)CC1=C(C)/C(=C/c2[nH]c(-c3ccc[nH]3)cc2OC)N=C1C when tested on HCC-2998 colon.
30.4

Name the value of growth reported for Cc1c2ncccc2nc2[nH]c3ccc(OCCN(C)C)cc3c12 when tested on HCC-2998 colon.
53.3

Name the value of growth reported for COc1ccc(-c2nc3ccc(C)cc3c3c2c(=O)n(C)c(=O)n3C)cc1OC when tested on HCC-2998 colon.
98.2

Name the value of growth reported for O=C1C=CC2(O)OC/C(=C\c3ccccc3)C(O)=C2C1=O (stereo not drawn) when tested on HCC-2998 colon.
80.6

Name the value of growth reported for COc1ccc(Oc2ccc(/C=C/C(=O)c3ccc(OC)c(OC)c3)cc2)cc1 when tested on HCC-2998 colon.
104

Name the value of growth reported for COc1c2c(cc3c1C(=O)N[C@@H]1[C@@H](O)[C@@H](O)[C@H](O)C[C@@H]31)OCCO2 when tested on HCC-2998 colon.
106

Name the value of growth reported for Clc1ccc2nn3c4ccccc4c(OCCN4CCOCC4)nc3c2c1 when tested on HCC-2998 colon.
107

Name the value of growth reported for Nc1cc(Br)cc2c1[nH]c(=O)c1ccccc12 when tested on HCC-2998 colon.
104
